# System: Toledo cells
# protocol-summary: Medium throughput combination proliferation assay (CellTiter-Glo, Chou-Talalay CI / potency shift)
# experimental-setup: read-out: Potency (IC50); Toledo; single agent, dosed for 5 days
pIC50: −log10 of the molar value.
The label depends only on pIC50: rule met if it is at least 7, rule not met if it is smaller.

Ask: Please indicate if the recorded pIC50 for C[C@@H]1C[C@H]2[C@@H]3CCC4=CC(=O)C=C[C@]4(C)[C@@]3(F)[C@@H](O)C[C@]2(C)[C@@]1(O)C(=O)CO [Dexamethasone] meets or exceeds 7.
Result: rule not met

Ask: Answer whether pIC50 of CO[C@H]1C[C@@H]2CC[C@@H](C)[C@@](O)(O2)C(=O)C(=O)N2CCCC[C@H]2C(=O)O[C@H]([C@H](C)C[C@@H]2CC[C@@H](OCCO)[C@H](OC)C2)CC(=O)[C@H](C)/C=C(\C)[C@@H](O)[C@@H](OC)C(=O)[C@H](C)C[C@H](C)/C=C/C=C/C=C/1C [Everolimus] is greater than or equal to 7.
Result: rule met

Ask: Does CC(=O)Nc1cccc(-n2c(=O)n(C3CC3)c(=O)c3c(Nc4ccc(I)cc4F)n(C)c(=O)c(C)c32)c1 [Trametinib] have a reported pIC50 of at least 7?
Result: rule not met

Ask: Check this compound for pIC50 at or above 7: C[C@]12C=CC(=O)C=C1CC[C@@H]1[C@@H]2[C@@H](O)C[C@@]2(C)[C@H]1CC[C@]2(O)C(=O)CO [Prednisolone]
Result: rule not met

Ask: Hello, I need to know if COc1cc(Nc2ncc(F)c(Nc3ccc4c(n3)NC(=O)C(C)(C)O4)n2)cc(OC)c1OC [Tamatinib] has measured pIC50 not below 7. Thanks!
Result: rule not met

Ask: # bool: pIC50 of CC1(C)CCC(c2ccc(Cl)cc2)=C(CN2CCN(c3ccc(C(=O)NS(=O)(=O)c4ccc(N[C@H](CCN5CCOCC5)CSc5ccccc5)c(S(=O)(=O)C(F)(F)F)c4)cc3)CC2)C1 [Navitoclax] >= 7
Result: rule not met

Ask: API: above_or_equal(metric=pIC50, cutoff=7) for item CC1(C)CCC(CN2CCN(c3ccc(C(=O)NS(=O)(=O)c4ccc(NCC5CCOCC5)c([N+](=O)[O-])c4)c(Oc4cnc5[nH]ccc5c4)c3)CC2)=C(c2ccc(Cl)cc2)C1 [ABT-199]
Result: rule not met

Ask: Please check the record CC[C@H](Nc1ncnc2[nH]cnc12)c1nc2cccc(F)c2c(=O)n1-c1ccccc1 [Idelalisib] and state if its pIC50 is at or above 7.
Result: rule not met

Ask: Is it the case that C=CC(=O)N1CCC[C@@H](n2nc(-c3ccc(Oc4ccccc4)cc3)c3c(N)ncnc32)C1 [Ibrutinib] has pIC50 reaching or exceeding 7?
Result: rule not met

Ask: Would you say CC(C)C[C@H](NC(=O)[C@H](Cc1ccccc1)NC(=O)c1cnccn1)B(O)O [Bortezomib] shows pIC50 at minimum 7?
Result: rule met

====

# Tested on: WSU-DLCL2 cells
# protocol-summary: Medium throughput combination proliferation assay (CellTiter-Glo, Chou-Talalay CI / potency shift)
# experimental-setup: Homo sapiens, WSUDLCL2, 72 h, read-out: Potency (IC50)
Binning scheme for IC50: low bin (below 0.1 µM), mid bin (0.1 µM to below 2 µM), high bin (2 µM or more)

Ask: Determine which band this molecule sits in: C=CC(=O)N1CCC[C@@H](n2nc(-c3ccc(Oc4ccccc4)cc3)c3c(N)ncnc32)C1
Result: mid bin

Ask: Band of CC1(C)CCC(c2ccc(Cl)cc2)=C(CN2CCN(c3ccc(C(=O)NS(=O)(=O)c4ccc(N[C@H](CCN5CCOCC5)CSc5ccccc5)c(S(=O)(=O)C(F)(F)F)c4)cc3)CC2)C1 ?
Result: high bin

Ask: Which IC50 band matches NC1(c2ccc(-c3nc4ccn5c(=O)[nH]nc5c4cc3-c3ccccc3)cc2)CCC1 ?
Result: mid bin

Ask: Form field 'band' for CO[C@H]1C[C@@H]2CC[C@@H](C)[C@@](O)(O2)C(=O)C(=O)N2CCCC[C@H]2C(=O)O[C@H]([C@H](C)C[C@@H]2CC[C@@H](OCCO)[C@H](OC)C2)CC(=O)[C@H](C)/C=C(\C)[C@@H](O)[C@@H](OC)C(=O)[C@H](C)C[C@H](C)/C=C/C=C/C=C/1C
Result: low bin

Ask: Using the reported IC50, which band applies to CC1(C)CCC(CN2CCN(c3ccc(C(=O)NS(=O)(=O)c4ccc(NCC5CCOCC5)c([N+](=O)[O-])c4)c(Oc4cnc5[nH]ccc5c4)c3)CC2)=C(c2ccc(Cl)cc2)C1 ?
Result: mid bin

Ask: Pick a category. Item: CC(=O)Nc1cccc(-n2c(=O)n(C3CC3)c(=O)c3c(Nc4ccc(I)cc4F)n(C)c(=O)c(C)c32)c1
Result: high bin

Ask: Each molecule maps to one class by IC50. Which class for C[C@@H]1C[C@H]2[C@@H]3CCC4=CC(=O)C=C[C@]4(C)[C@@]3(F)[C@@H](O)C[C@]2(C)[C@@]1(O)C(=O)CO ?
Result: high bin

Ask: // bin(item) where item = COc1cc(Nc2ncc(F)c(Nc3ccc4c(n3)NC(=O)C(C)(C)O4)n2)cc(OC)c1OC
Result: high bin

Ask: Sort into band: COC1=CC(c2cc3ccccc3[nH]2)=N/C1=C\c1[nH]c(C)cc1C
Result: low bin

Ask: Tag the class for CC(C)C[C@H](NC(=O)[C@H](Cc1ccccc1)NC(=O)c1cnccn1)B(O)O
Result: low bin
